Each recorded value in this set is attributed to the FLAb antibody collection (doi:10.7554/elife.23156).

B1: scFv; the commonest letter at each place (parent)
chain 1: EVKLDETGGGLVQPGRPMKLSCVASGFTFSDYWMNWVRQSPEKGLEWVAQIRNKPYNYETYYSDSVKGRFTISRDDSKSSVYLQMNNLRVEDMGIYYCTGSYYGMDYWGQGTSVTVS
chain 2: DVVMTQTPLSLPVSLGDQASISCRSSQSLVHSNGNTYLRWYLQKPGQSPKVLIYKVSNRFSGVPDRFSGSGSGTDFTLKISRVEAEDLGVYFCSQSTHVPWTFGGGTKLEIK

variants of: B1; assay: yeast surface expression (ratio to wild type); higher = more expressed; conditions: format: scFv 4-4-20, heavy + light
property measured: yeast surface expression
Output: the number by itself.

mutant id: chain 1 M105W W108K
measured: 0.363
--
mutant id: chain 1 F29D W33L
measured: 0.795
--
mutant id: chain 1 M105R Y107G
measured: 0.615
--
mutant id: chain 1 G100N
measured: 0.668
--
mutant id: chain 1 G104E G109Y
measured: 0.384

Data request, read-out yeast surface expression, for chain 1 T28K S30H
0.814

Fill in the blank: the reported yeast surface expression of chain 1 Y103F W108I is ____.
0.885

Consider the variant chain 1 M34W N35C and give its measured yeast surface expression.
0.721

Can you share its yeast surface expression? I mean this variant: chain 1 N35I W36N
0.743

Item chain 1 D31N has what recorded yeast surface expression?
1.1

Requested read-out: yeast surface expression. Entry: chain 1 D31Q W33T
0.793
